# Target: T1, human vascular endothelial growth factor receptor-2 Fc chimera (KDR-Fc) (human, UniProt P35968 20-764)
# T1 construct: range 1-764; purchased from R&D Systems; also called hKDR; human VEGF-R2-Fc; not shown: human IgG1 Fc
# T1 sequence (P35968 20-764 limits assumed, change not shown, form in doubt): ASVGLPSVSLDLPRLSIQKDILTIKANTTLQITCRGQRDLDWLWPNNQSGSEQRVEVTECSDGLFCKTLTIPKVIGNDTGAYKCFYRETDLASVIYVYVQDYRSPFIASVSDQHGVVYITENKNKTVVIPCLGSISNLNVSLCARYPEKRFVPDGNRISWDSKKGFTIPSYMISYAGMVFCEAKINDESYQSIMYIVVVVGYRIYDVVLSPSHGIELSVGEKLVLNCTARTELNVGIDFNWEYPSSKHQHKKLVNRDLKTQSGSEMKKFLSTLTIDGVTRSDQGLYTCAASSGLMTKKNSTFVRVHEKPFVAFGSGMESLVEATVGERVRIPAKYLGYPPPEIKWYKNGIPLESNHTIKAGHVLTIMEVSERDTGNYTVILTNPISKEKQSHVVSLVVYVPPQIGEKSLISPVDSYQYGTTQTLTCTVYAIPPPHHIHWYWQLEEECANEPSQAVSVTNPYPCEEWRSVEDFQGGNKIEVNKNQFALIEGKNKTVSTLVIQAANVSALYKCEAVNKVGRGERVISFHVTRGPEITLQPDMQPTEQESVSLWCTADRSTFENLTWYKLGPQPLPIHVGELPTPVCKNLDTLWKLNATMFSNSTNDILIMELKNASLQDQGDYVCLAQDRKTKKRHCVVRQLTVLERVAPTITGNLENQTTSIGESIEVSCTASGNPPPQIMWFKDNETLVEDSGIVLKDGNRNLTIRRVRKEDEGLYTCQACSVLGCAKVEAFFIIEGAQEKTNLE
# Assay summary: radioactive equilibrium binding, 1 nM KDR-Fc
Collected Binding to 1 nM KDR, % values appear next to each entry.

# Binder, Binding to 1 nM KDR, %
measured = [
    ("2′Del F12 PR4 (designed binder, tag left out) EVVAATPTSLLISWRHPHFPTRYYRITYGETGGNSPVQEFTVPLQPPTATISGLKPGVDYTITGYAVTLTQHDHELLTPISINYRT", "7%"),
    ("4G4 PR3 (designed binder, tag left out) EVVAATPTSLLISWRHPHFPTRYYRITYGETGGNSPVQEFTVPLQPPTATISGLKPGVDYTITGYAVTLGQNDHELLTPISINYRT", "8%"),
    ("3′D4 PR4 (designed binder, tag left out) EVVAATPTSLLISWRHPHFPTRYYRITYGETGGNSPVQEFTVPLQPPTATISGLKPGVDYTITGYAVTLAHNDRELITPISINYRT", "12%"),
    ("2′G11-PR4 (designed binder, tag left out) VSDVPRDLEVVAATPTSLLISWRHPHFPTRYYRITYGETGGNSPVQEFTVPLQPPTATISGLKPGVDYTITGYAVTGGQMNRVLMTPISINYRT", "12%"),
    ("3A8 PR3 (designed binder, tag left out) EVVAATPTSLLISWRHPHFPTRYYRITYGETGGNSPVQEFTVPLQPPTATISGLKPGVDYTITGYAVTEAHHGHELMIPISINYRT", "12%"),
]
